Each record here notes measured Average %.
target: T1, HLA-A*02:01 class I complex (conditional p*HLA*02:01, biotinylated heavy chain with beta2-microglobulin) (human, biotinylated heavy chain); assay: UV peptide exchange, HLA class I ELISA, % of Pos peptide;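 also: Streptavidin-captured HLA complexes after exchange detected via HRP anti-human B2M antibody, absorbance read, colour scales with intact complex, normalized to exchange control peptide as 100%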
T1 construct: UV-labile peptide p* is cleaved and exchanged for the test peptide; also called HLA 2.1
Give just the numeric value; % need not be written.

// known answers, use as guide
GLKDLLNPV (also called M081) [PIK3CA_E453K5 mimic peptide GLKDLLNPV]; 74.9
YQGSYGFLI (also called M201) [TP53_R110L3 mimic peptide YQGSYGFLI]; 8.9
LLGRNSFEM (also called M220) [TP53.V272M mutant peptide LLGRNSFEM]; 50.9
ALNNMFCQV (also called M161) [TP53_K132N5 mimic peptide ALNNMFCQV]; 69.3

Would you mind telling me what Average % value was observed for NLDEYVHNL (also called M114) [SF3B1.R625H10 mimic peptide NLDEYVHNL] ?
55.1

Another binder to check: YMDCGIHSL (also called M021) [CTNNB1_S33C10 mimic peptide YMDCGIHSL]
106

Can you check RMIHRDLAL (also called M241; ERBB2_V842110) [ERBB2_V842I10 mimic peptide RMIHRDLAL] next?
53.7

Then CYLYYYSYLV (also called M102) [PTEN R173C6 mimic peptide CYLYYYSYLV] ?
10.7

Same read-out for RLIHRDLAA (also called M240) [ERBB2.V842I mutant peptide RLIHRDLAA] ?
7.2

Note, next up: GMAPPQYLV (also called M152) [TP53_H193Y6 mimic peptide GMAPPQYLV]
21.4

Another binder: YLDCGIHSG (also called M020) [CTNNB1.S33C mutant peptide YLDCGIHSG]
33.9
